The reported numbers originate from patent US20260053834A1.

- System: LAPC4 prostate cancer cells, which express the AKT1 E17K allele
- assay-name: Antiproliferative effects in LAPC4 cells (CellTiter Glo, 72 h)
- Type: cell-based
- experimental-conditions: Homo sapiens, LAPC4, 72 h, read-out: LAPC4 proliferation IC50: GeoMean IC50
property-measured: IC50

IN: Query IC50 for Nc1ncccc1-c1nc2ccc(C(F)(F)F)nc2n1-c1ccc2c(c1)CC[C@@H]2NC(=O)c1ccc(O)c(C=O)c1 [Example 55]
OUT: ≥ 2000 nM

IN: Query IC50 for CC(=O)Nc1ccc(C(=O)N[C@H]2CCc3cc(-n4c(-c5cccnc5N)nc5ccc(-n6cccn6)nc54)ccc32)cc1C=O [Example 56]
OUT: 10 to 100 nM

IN: Query IC50 for Nc1ncccc1-c1nc2ccc(-n3ccc(N4CCC4)n3)nc2n1-c1ccc2c(c1)CC[C@@H]2NC(=O)c1ccc(O)c(C=O)c1 [Example 156]
OUT: < 10 nM

IN: Query IC50 for Nc1ncccc1-c1nc2c(-n3cn[nH]c3=O)cc(-n3cccn3)nc2n1-c1ccc2c(c1)CC[C@@H]2NC(=O)c1ccc(O)c(C=O)c1 [Example 233]
OUT: 100 to 2000 nM

IN: Query IC50 for Nc1ncccc1-c1nc2ccc(-c3ccccc3)nc2n1-c1ccc2c(c1)CC[C@@H]2Nc1nccc2c(C=O)c(O)ccc12 [Example 39]
OUT: 100 to 2000 nM

IN: Query IC50 for Nc1ncccc1-c1nc2ccc(-n3cc4c(n3)COC4)nc2n1-c1ccc2c(c1)CC[C@@H]2NC(=O)c1ccc(O)c(C=O)c1 [Example 207]
OUT: 100 to 2000 nM

* * *

- System: LAPC4 prostate cancer cells, which express the AKT1 E17K allele
- assay-name: Antiproliferative effects in LAPC4 cells (CellTiter Glo, 72 h)
- Type: cell-based
- experimental-conditions: Homo sapiens, LAPC4, 72 h, read-out: LAPC4 proliferation IC50: GeoMean IC50
property-measured: IC50

IN: Query IC50 for Nc1ncccc1-c1nc2ccc(-n3cccn3)nc2n1-c1ccc2c(c1)CC[C@@H]2N1CCc2cc(O)c(C=O)cc2C1=O [Example 177]
OUT: ≥ 2000 nM

IN: Query IC50 for CN(C)c1nc2cc(C(=O)N[C@H]3CCc4cc(-n5c(-c6cccnc6N)nc6ccc(-n7cccn7)nc65)ccc43)cc(C=O)c2[nH]1 [Example 175]
OUT: < 10 nM

IN: Query IC50 for Nc1ncccc1-c1nc2ccc(-n3cccn3)nc2n1-c1ccc2c(c1)CC[C@@H]2NC(=O)c1cc(Cl)c(O)c(C=O)c1 [Example 93]
OUT: 100 to 2000 nM

IN: Query IC50 for [2H]C(=O)c1cc(C(=O)N[C@H]2CCc3cc(-n4c(-c5cccnc5N)nc5c(C)cc(-n6cccn6)nc54)ccc32)ccc1O [Example 183]
OUT: 100 to 2000 nM

IN: Query IC50 for Nc1ncccc1-c1nc2c(C(F)F)cc(-n3cccn3)nc2n1-c1ccc2c(c1)CC[C@@H]2NC(=O)c1ccc(O)c(C=O)c1 [Example 245]
OUT: 10 to 100 nM

IN: Query IC50 for Nc1ncccc1-c1nc2ccc(-c3ccn(C(F)F)n3)nc2n1-c1ccc2c(c1)CC[C@@H]2NC(=O)c1cc(C=O)c(O)cc1F [Example 158]
OUT: 10 to 100 nM

IN: Query IC50 for Nc1ncccc1-c1nc2ccc(-c3cccc(F)c3)nc2n1-c1ccc2c(c1)CC[C@@H]2NC(=O)c1ccc(O)c(C=O)c1 [Example 26]
OUT: 100 to 2000 nM

IN: Query IC50 for Cc1cnc(-c2ccc3nc(-c4cccnc4N)n(-c4ccc5c(c4)CC[C@@H]5NC(=O)c4ccc(O)c(C=O)c4)c3n2)o1 [Example 174]
OUT: 100 to 2000 nM

IN: Query IC50 for Nc1ncccc1-c1nc2ccc(-c3cccnn3)nc2n1-c1ccc2c(c1)CC[C@@H]2NC(=O)c1ccc(O)c(C=O)c1 [Example 18]
OUT: 100 to 2000 nM

IN: Query IC50 for Nc1ncccc1-c1nc2ccc(-n3cccn3)nc2n1-c1ccc2c(c1)CC[C@@H]2NC(=O)c1cc(C=O)c(O)c(Cl)c1F [Example 123]
OUT: 10 to 100 nM

IN: Query IC50 for CS(=O)(=O)Nc1ncc(C(=O)N[C@H]2CCc3cc(-n4c(-c5cccnc5N)nc5ccc(-n6cccn6)nc54)ccc32)cc1C=O [Example 111]
OUT: ≥ 2000 nM

IN: Query IC50 for Nc1ncccc1-c1nc2ccc(-c3ccccc3)nc2n1-c1ccc2c(c1)CC[C@@H]2NC(=O)c1cc(F)c(O)c(C=O)c1 [Example 8]
OUT: 10 to 100 nM

IN: Query IC50 for Nc1ncccc1-c1nc2ccc(-n3ccc(C(F)F)n3)nc2n1-c1ccc2c(c1)CC[C@@H]2NC(=O)c1ccc(O)c(C=O)c1 [Example 116]
OUT: 100 to 2000 nM

IN: Query IC50 for Nc1ncccc1-c1nc2ccc(-n3cccn3)nc2n1-c1ccc2c(c1)CC[C@@H]2NCc1cc(C=O)c(O)cc1F [Example 239]
OUT: ≥ 2000 nM

IN: Query IC50 for Nc1ncccc1-c1nc2ccc(-c3ccccc3)nc2n1-c1ccc2c(c1)CC[C@@H]2NC(=O)c1cc(C=O)c2[nH]nnc2c1 [Example 137]
OUT: 10 to 100 nM

IN: Query IC50 for Cc1cc(-n2cccn2)nc2c1nc(-c1cccnc1N)n2-c1ccc2c(c1)CC[C@@H]2NC(=O)c1cc(C=O)c(O)c(F)c1F [Example 153]
OUT: 10 to 100 nM

IN: Query IC50 for Cn1cc(-c2ccc3nc(-c4cccnc4N)n(-c4ccc5c(c4)CC[C@@H]5NC(=O)c4ccc(O)c(C=O)c4)c3n2)nn1 [Example 72]
OUT: 100 to 2000 nM
